- Target Of Assay: T1, human complement factor H (human, UniProt P08603 19-1231)
- T1 construct: also called human fH; fH
- T1 sequence (P08603 19-1231 limits assumed): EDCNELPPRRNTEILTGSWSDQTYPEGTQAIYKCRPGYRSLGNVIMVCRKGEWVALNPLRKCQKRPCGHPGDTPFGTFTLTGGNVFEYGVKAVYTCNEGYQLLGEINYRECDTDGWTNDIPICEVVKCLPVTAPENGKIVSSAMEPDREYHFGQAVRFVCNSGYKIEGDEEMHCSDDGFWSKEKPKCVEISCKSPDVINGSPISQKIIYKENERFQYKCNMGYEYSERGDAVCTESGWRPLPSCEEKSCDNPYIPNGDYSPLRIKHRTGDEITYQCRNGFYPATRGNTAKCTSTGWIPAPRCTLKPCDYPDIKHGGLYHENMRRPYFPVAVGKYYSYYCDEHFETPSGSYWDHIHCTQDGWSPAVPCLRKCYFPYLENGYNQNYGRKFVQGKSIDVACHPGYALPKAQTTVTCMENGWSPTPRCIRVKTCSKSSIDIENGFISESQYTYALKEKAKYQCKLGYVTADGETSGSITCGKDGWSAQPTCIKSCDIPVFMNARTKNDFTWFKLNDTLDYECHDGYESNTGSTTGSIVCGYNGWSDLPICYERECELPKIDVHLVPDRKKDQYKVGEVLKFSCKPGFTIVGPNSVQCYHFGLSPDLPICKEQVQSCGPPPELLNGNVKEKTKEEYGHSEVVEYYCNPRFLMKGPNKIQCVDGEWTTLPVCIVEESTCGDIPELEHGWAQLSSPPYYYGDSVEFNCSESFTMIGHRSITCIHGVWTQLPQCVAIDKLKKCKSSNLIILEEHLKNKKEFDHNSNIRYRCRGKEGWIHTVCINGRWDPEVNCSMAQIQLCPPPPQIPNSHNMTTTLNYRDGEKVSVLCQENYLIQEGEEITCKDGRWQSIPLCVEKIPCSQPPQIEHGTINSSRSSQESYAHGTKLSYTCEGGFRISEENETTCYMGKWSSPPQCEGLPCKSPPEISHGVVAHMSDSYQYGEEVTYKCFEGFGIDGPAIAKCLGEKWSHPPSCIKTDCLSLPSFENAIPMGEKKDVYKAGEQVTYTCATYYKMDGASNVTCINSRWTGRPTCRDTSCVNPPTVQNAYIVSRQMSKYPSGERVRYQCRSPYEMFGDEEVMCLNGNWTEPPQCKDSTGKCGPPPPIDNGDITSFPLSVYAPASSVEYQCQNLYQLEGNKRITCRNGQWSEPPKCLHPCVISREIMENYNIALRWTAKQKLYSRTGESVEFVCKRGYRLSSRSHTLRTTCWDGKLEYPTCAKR
- Measurement Notes: ELISA, fHbp on plate
Quantity Name: binding result

fHbp ID 77 R41S/K113A/D121A triple mutant (other) CSSGGGGVAADIGARLADALTAPLDHKDKSLQSLTLDQSVSKNEKLKLAAQGAEKTYGNGDSLNTGKLKNDKVSRFDFIRQIEVDGQLITLESGEFQIYKQDHSAVVALQIEAINNPDKIASLINQRSFLVSGLGGEHTAFNQLPDGKAEYHGKAFSSDDAGGKLTYTIDFAAKQGHGKIEHLKTPEQNVELAAAELKADEKSHAVILGDTRYGSEEKGTYHLALFGDRAQEIAGSATVKIGEKVHEIGIAGKQ = no binding
fHbp ID 28, wild-type (strain M1239, variant group 3, modular group II) (other, Recombinant; also called Pep28; peptide 28) CSSGGGGSGGGGVAADIGTGLADALTAPLDHKDKGLKSLTLEDSIPQNGTLTLSAQGAEKTFKAGDKDNSLNTGKLKNDKISRFDFVQKIEVDGQTITLASGEFQIYKQNHSAVVALQIEKINNPDKTDSLINQRSFLVSGLGGEHTAFNQLPGGKAEYHGKAFSSDDPNGRLHYSIDFTKKQGYGRIEHLKTLEQNVELAAAELKADEKSHAVILGDTRYGSEEKGTYHLALFGDRAQEIAGSATVKIGEKVHEIGIAGKQ = binds
fHbp ID 28 D201A mutant (other, also called D201A (ID 28)) CSSGGGGSGGGGVAADIGTGLADALTAPLDHKDKGLKSLTLEDSIPQNGTLTLSAQGAEKTFKAGDKDNSLNTGKLKNDKISRFDFVQKIEVDGQTITLASGEFQIYKQNHSAVVALQIEKINNPDKTDSLINQRSFLVSGLGGEHTAFNQLPGGKAEYHGKAFSSDDPNGRLHYSIDFTKKQGYGRIEHLKTLEQNVELAAAELKAAEKSHAVILGDTRYGSEEKGTYHLALFGDRAQEIAGSATVKIGEKVHEIGIAGKQ = binds
fHbp ID 15 S41P mutant (other, also called Pep 15 S41P) CSSGGGGSGGGGVAADIGAGLADALTAPLDHKDKGLKSLTLEDSIPQNGTLTLSAQGAERTFKAGDKDNSLNTGKLKNDKISRFDFIRQIEVDGQLITLESGEFQVYKQSHSALTALQTEQVQDSEHSGKMVAKRQFRIGDIVGEHTSFGKLPKDVMATYRGTAFGSDDAGGKLTYTIDFAAKQGHGKIEHLKSPELNVDLAAADIKPDEKHHAVISGSVLYNQAEKGSYSLGIFGGQAQEVAGSAEVETANGIRHIGLAAKQ = no binding

Reference source for all entries: patent US20110256180A1
